molecular target: mouse melanocortin 1 receptor (mouse, UniProt Q01727 1-315); experiment: cell-based or functional assay
Sequence (Q01727 whole entry): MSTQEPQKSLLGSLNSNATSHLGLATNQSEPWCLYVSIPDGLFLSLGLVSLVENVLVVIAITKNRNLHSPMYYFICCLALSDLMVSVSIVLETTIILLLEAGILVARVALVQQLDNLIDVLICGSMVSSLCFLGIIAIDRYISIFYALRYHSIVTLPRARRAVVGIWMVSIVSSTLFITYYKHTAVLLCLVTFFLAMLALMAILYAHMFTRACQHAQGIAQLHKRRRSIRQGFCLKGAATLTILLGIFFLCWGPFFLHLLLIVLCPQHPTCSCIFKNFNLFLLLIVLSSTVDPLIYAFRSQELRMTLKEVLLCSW
Non-standard residues stand in square brackets, D forms with d. Dap = NC[C@H](N)C(=O)O
PROPERTY: EC50 (nM), agonist, cAMP AlphaScreen

Below, each entry is followed by its recorded EC50 (nM), agonist, cAMP AlphaScreen result.
>>> endpoint_result("cyclo(P[dF]RWNA[dP]) (also: TFA salt) [MDE6-3-1c, c[Pro-DPhe-Arg-Trp-Asn-Ala-DPro]]")
500
>>> endpoint_result("cyclo(P[dF]RWNAF[dP]) (also: TFA salt) [MDE5-149-1c, c[Pro-DPhe-Arg-Trp-Asn-Ala-Phe-DPro]]")
400
>>> endpoint_result("cyclo(PH[dF]RW[dP]) (also: TFA salt) [MDE5-147-2c, c[Pro-His-DPhe-Arg-Trp-DPro]]")
900

I = cyclo(P[dF]RWN[dP]) (also: TFA salt) [MDE6-10-1c, c[Pro-DPhe-Arg-Trp-Asn-DPro]]
II = cyclo(PH[dF]RW[Dap]A[dP]) (also: TFA salt) [MDE6-5-2c, c[Pro-His-DPhe-Arg-Trp-Dap-Ala-DPro]]
III = cyclo(PH[dF]RW[Dap][dP]) (also: TFA salt) [MDE6-12-2c, c[Pro-His-DPhe-Arg-Trp-Dap-DPro]]
IN: Arrange the 3 binders from largest to smallest EC50 (nM), agonist, cAMP AlphaScreen. Would you mind listing the labels in the order asked for?
OUT: III, I, II
(III: 460 nM, I: 40 nM, II: 1.1 nM)
